subject.of.test: human AspH (His6-AspH315–758) (Homo sapiens, UniProt Q12797)
Construct: N-Terminally His6-tagged human AspH315–758 (His6-AspH315–758) was produced in Escherichia coli BL21 (DE3) cells; made in house; host or cells: Escherichia coli BL21 (DE3), pET-28a(+) vector
test.summary: SPE-MS AspH inhibition assay (hFX-CP101-119 substrate hydroxylation)
Assay type: biochemical
measurement.conditions: AspH-inhibitor screening, Plate 1-duplicate
Counter-ions that a name gives are not always drawn.
endpoint.name: Plate 1-duplicate (% inhibition) (%)

{"compound": "C[C@@H]1C=C2C(=O)O[C@@H]3CC[C@H](C1)[C@]23O [Galiellalactone]", "Plate 1-duplicate (% inhibition) [%]": 8.63}
{"compound": "CCc1c2c(nc3ccc(OC(=O)N4CCC(N5CCCCC5)CC4)cc13)-c1cc3c(c(=O)n1C2)COC(=O)[C@]3(O)CC [Irinotecan]", "Plate 1-duplicate (% inhibition) [%]": -3.53}
{"compound": "CC(C)C[C@H](NC(=O)[C@H](Cc1ccccc1)NC(=O)c1cnccn1)B(O)O [Bortezomib]", "Plate 1-duplicate (% inhibition) [%]": 7.89}
{"compound": "Cc1cn(-c2cc(NC(=O)c3ccc(C)c(Nc4nccc(-c5cccnc5)n4)c3)cc(C(F)(F)F)c2)cn1 [Nilotinib]", "Plate 1-duplicate (% inhibition) [%]": -7.89}
{"compound": "CC[C@@]1(O)C(=O)OCc2c1cc1n(c2=O)Cc2cc3ccccc3nc2-1 [Camptothecin]", "Plate 1-duplicate (% inhibition) [%]": 4.34}
{"compound": "Nc1ncnc2c1c(COc1cccc(Cl)c1)nn2C1CCOCC1 [PF4800567 hydrochloride]", "Plate 1-duplicate (% inhibition) [%]": 0.27}

P. CCN(CC)CCCC(C)Nc1c2ccc(Cl)cc2nc2ccc(OC)cc12 (centres unmarked) [Quinacrine HCl]
Q. Nc1ncn([C@H]2C[C@H](O)[C@@H](CO)O2)c(=O)n1 [Decitabine (Dacogen)]
R. CNC(=O)c1cccc(-c2ccc3c(N4CCOC[C@@H]4C)nc(N4CCOC[C@@H]4C)nc3n2)c1 [AZD2014]
S. Cc1ccc([N+](=O)[O-])cc1S(=O)(=O)N(C)/N=C/c1cnc2ccc(Br)cn12.Cl [PIK-75 HCl]
T. Clc1ccc(C(c2ccccc2Cl)C(Cl)Cl)cc1 (centres unmarked) [Mitotane]
// query Order the records by Plate 1-duplicate (% inhibition), with each subsequent value no larger than the one before. Write out the labels following the order that was asked for.
// result T, P, R, Q, S

P. COc1ccc(S(=O)(=O)Nc2cccnc2Nc2ccc(O)cc2)cc1 [ABT-751]
Q. CC1=C(/C=C/C(C)=C/C=C/C(C)=C/C(=O)O)C(C)(C)CCC1 [Tretinoin]
R. O=C(CCBr)N1CCN(C(=O)CCBr)CC1 [Pipobroman]
S. CN(C)c1nc(N(C)C)nc(N(C)C)n1 [Altretamine]
T. O=C1CCC(N2C(=O)c3ccccc3C2=O)C(=O)N1 (centres unmarked) [Thalidomide]
// query Hi! Can you put these in order of Plate 1-duplicate (% inhibition), lowest number first? Write out the labels following the order that was asked for.
// result T, R, P, S, Q

---

subject.of.test: human AspH (His6-AspH315–758) (Homo sapiens)
Construct: N-Terminally His6-tagged human AspH315–758 (His6-AspH315–758) was produced in Escherichia coli BL21 (DE3) cells; made in house; host or cells: Escherichia coli BL21 (DE3), pET-28a(+) vector
test.summary: SPE-MS AspH inhibition assay (hFX-CP101-119 substrate hydroxylation)
Type: biochemical
measurement.conditions: AspH-inhibitor screening, Plate 1-duplicate
Structures can show the parent of a compound that is named as a salt.
endpoint.name: Plate 1-duplicate (% inhibition) (%)

P. Cn1c(Nc2ccc(C(F)(F)F)cc2)nc2cc(Oc3ccnc(-c4ncc(C(F)(F)F)[nH]4)c3)ccc21 [RAF265]
Q. CO[C@@H](C(=O)N1Cc2[nH]nc(NC(=O)c3ccc(N4CCN(C)CC4)cc3)c2C1)c1ccccc1 [PHA-739358 (Danusertib)]
R. Nc1ccn([C@@H]2O[C@H](CO)[C@@H](O)[C@@H]2O)c(=O)n1 [Cytarabine hydrochloride]
S. CC(=O)c1c(C)c2cnc(Nc3ccc(N4CCNCC4)cn3)nc2n(C2CCCC2)c1=O [PD-0332991]
// query For the molecules shown above, give the order from largest Plate 1-duplicate (% inhibition) to smallest. Write out the labels following the order that was asked for.
// result P, R, Q, S

---

subject.of.test: human AspH (His6-AspH315–758) (Homo sapiens, UniProt Q12797)
Construct: N-Terminally His6-tagged human AspH315–758 (His6-AspH315–758) was produced in Escherichia coli BL21 (DE3) cells; made in house; host or cells: Escherichia coli BL21 (DE3), pET-28a(+) vector
test.summary: SPE-MS AspH inhibition assay (hFX-CP101-119 substrate hydroxylation)
Type: biochemical
measurement.conditions: AspH-inhibitor screening, 384-well Plate 1, substrate conversion
endpoint.name: Plate 1 (% conversion) (%)

Worked set:
{"compound": "NC(=O)NO [Hydroxyurea]", "endpoint.name": "Plate 1 (% conversion)", "unit.string": "%", "endpoint.result": 41.97}
{"compound": "N.N.[Cl][Pt][Cl] [Cisplatin aq]", "endpoint.name": "Plate 1 (% conversion)", "unit.string": "%", "endpoint.result": 37.33}
{"compound": "COc1cc2nccc(Oc3ccc(NC(=O)C4(C(=O)Nc5ccc(F)cc5)CC4)cc3)c2cc1OC [XL184_Cabozantinib]", "endpoint.name": "Plate 1 (% conversion)", "unit.string": "%", "endpoint.result": 44.58}

1. CC(=O)Nc1ccc(C(=O)Nc2ccccc2N)cc1
2. CNC(=O)c1cc(Oc2ccc(NC(=O)Nc3ccc(Cl)c(C(F)(F)F)c3)c(F)c2)ccn1
// query Please tell me which of the two, 1 or 2 , has the higher reported Plate 1 (% conversion) value. Reply with the label of the item you choose.
// result 1

---

subject.of.test: human AspH (His6-AspH315–758) (Homo sapiens, UniProt Q12797)
Construct: N-Terminally His6-tagged human AspH315–758 (His6-AspH315–758) was produced in Escherichia coli BL21 (DE3) cells; made in house; host or cells: Escherichia coli BL21 (DE3), pET-28a(+) vector
Sequence (Q12797 315-758): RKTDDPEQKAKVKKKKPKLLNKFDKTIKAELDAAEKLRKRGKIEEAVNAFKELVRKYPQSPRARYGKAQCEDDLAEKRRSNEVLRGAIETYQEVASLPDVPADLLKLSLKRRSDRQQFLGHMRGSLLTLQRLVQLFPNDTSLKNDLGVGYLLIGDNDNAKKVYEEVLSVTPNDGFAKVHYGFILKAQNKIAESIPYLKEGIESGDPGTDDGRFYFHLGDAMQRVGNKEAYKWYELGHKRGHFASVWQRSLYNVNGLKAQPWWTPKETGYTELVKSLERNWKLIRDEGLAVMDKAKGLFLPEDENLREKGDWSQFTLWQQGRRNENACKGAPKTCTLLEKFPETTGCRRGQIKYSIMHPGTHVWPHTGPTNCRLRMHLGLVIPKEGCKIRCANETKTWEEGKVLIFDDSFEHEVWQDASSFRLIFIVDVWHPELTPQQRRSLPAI
test.summary: SPE-MS AspH inhibition assay (hFX-CP101-119 substrate hydroxylation)
Assay type: biochemical
measurement.conditions: AspH-inhibitor screening, Plate 1-duplicate
Where a name gives a salt, the structure may show the parent alone.
endpoint.name: Plate 1-duplicate (% inhibition) (%)

Worked set:
{"compound": "CC[C@@H]1C(=O)N(C)c2cnc(Nc3ccc(C(=O)N[C@H]4CC[C@H](N5CCN(CC6CC6)CC5)CC4)cc3OC)nc2N1C(C)C", "subject.of.test": "human AspH (His6-AspH315–758) (Homo sapiens, UniProt Q12797)", "unit.string": "%", "Plate 1-duplicate (% inhibition)": -19.71}
{"compound": "O=NN(CCCl)C(=O)NCCCl", "subject.of.test": "human AspH (His6-AspH315–758) (Homo sapiens, UniProt Q12797)", "unit.string": "%", "Plate 1-duplicate (% inhibition)": 7.94}
{"compound": "COC(=O)C[C@](O)(CCCC(C)(C)O)C(=O)O[C@@H]1C(OC)=C[C@]23CCCN2CCc2cc4c(cc2[C@H]13)OCO4 [Homoharringtonine]", "subject.of.test": "human AspH (His6-AspH315–758) (Homo sapiens, UniProt Q12797)", "unit.string": "%", "Plate 1-duplicate (% inhibition)": 5.43}

I. C[C@]1(O)C[C@@H](c2nc(-c3ccc4ccc(-c5ccccc5)nc4c3)c3c(N)nccn32)C1
II. CC/C(=C(\c1ccccc1)c1ccc(OCCN(C)C)cc1)c1ccccc1 [Tamoxifen citrate]
// query In terms of reported Plate 1-duplicate (% inhibition), does I or II have the smaller number? Reply with the label of the item you choose.
// result I
(I: -12.38%, II: 59.34%)
